Every entry's value here was drawn from paper PMC7699381.

# System name: Apo-transferrin (apo-Tf) (Homo sapiens, UniProt P02787)
# Construct: purchased Sigma Aldrich Chemical Co. (Schnelldorf, Germany)
# Sequence (P02787 20-698): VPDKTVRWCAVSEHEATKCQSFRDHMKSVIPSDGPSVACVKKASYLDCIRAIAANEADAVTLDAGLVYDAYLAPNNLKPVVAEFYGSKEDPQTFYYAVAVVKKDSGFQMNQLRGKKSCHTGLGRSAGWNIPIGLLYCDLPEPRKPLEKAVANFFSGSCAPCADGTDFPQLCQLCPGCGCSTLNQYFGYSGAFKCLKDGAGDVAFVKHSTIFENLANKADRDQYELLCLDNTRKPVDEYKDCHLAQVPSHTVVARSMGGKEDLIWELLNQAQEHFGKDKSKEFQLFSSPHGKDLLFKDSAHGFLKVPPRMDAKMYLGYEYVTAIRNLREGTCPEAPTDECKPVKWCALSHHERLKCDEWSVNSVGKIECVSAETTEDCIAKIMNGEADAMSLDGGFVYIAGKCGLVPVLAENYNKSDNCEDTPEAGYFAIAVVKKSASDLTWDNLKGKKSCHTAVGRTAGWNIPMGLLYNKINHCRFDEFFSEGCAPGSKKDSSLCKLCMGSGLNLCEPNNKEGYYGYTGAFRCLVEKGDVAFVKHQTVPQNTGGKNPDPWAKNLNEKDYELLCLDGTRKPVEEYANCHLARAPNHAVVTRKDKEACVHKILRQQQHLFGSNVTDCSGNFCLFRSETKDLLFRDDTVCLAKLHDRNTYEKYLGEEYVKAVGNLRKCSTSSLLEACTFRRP
# Experimental protocol: Fluorescence quenching of apo-transferrin
# Format: binding
# Test conditions: 298 K, from KSV = Kq τ0
Value kind: Kq (bimolecular quenching constant), apo-Tf (M⁻¹ s⁻¹)
Give your result in M⁻¹ s⁻¹ as a bare value.

Input line: Note Kq (bimolecular quenching constant), apo-Tf for the compound shown: CCn1cc(C(=O)O)c(=O)c2cc3c(cc21)OCO3 [oxo, reference compound]
Output line: 1.745e+13

Input line: Note Kq (bimolecular quenching constant), apo-Tf for the compound shown: CCn1cc(C(=O)[O][Y]([OH])[O]C(=O)c2cn(CC)c3cc4c(cc3c2=O)OCO4)c(=O)c2cc3c(cc21)OCO3.O [Y oxo, [Y(oxo)(OH)(H2O)]]
Output line: 6.52e+12

Input line: Note Kq (bimolecular quenching constant), apo-Tf for the compound shown: CCn1cc(C(=O)[O][La]([OH])[O]C(=O)c2cn(CC)c3cc4c(cc3c2=O)OCO4)c(=O)c2cc3c(cc21)OCO3.O [La oxo, [La(oxo)(OH)(H2O)]]
Output line: 1.413e+13

Input line: Note Kq (bimolecular quenching constant), apo-Tf for the compound shown: CCn1cc(C(=O)[O][Sm]([OH])[O]C(=O)c2cn(CC)c3cc4c(cc3c2=O)OCO4)c(=O)c2cc3c(cc21)OCO3.O.O [Sm oxo, [Sm(oxo)(OH)(H2O)] · H2O]
Output line: 9.34e+12

Input line: Note Kq (bimolecular quenching constant), apo-Tf for the compound shown: CCn1cc(C(=O)[O][Eu]([OH])[O]C(=O)c2cn(CC)c3cc4c(cc3c2=O)OCO4)c(=O)c2cc3c(cc21)OCO3.O [Eu oxo, [Eu(oxo)(OH)(H2O)]]
Output line: 1.655e+13
